Where do these numbers come from? They come from paper PMC6152084.

- Tested on: NIH/3T3 mouse embryonic fibroblast cell line
- method.notes: Cytotoxicity test (MTT assay)
- Format: cell-based
- test.conditions: Mus musculus, NIH3T3; MTT; read-out: IC50 against NIH/3T3 cells
measured.endpoint: IC50 (µM)
# value in µM; strip the unit string

[
  {
    "compound": "CN1CCN(c2ccc(C=NNc3ccccc3)cc2)CC1",
    "measured.target": "NIH/3T3 mouse embryonic fibroblast cell line",
    "IC50 [µM]": 20
  }
]

Field: next compound
Request: Which value of IC50 has been reported for CC1CCCCN1c1ccc(/C=N/Nc2ccccc2)cc1 (centres unmarked) in the records?
Result: 930

====

Below, each of the compounds is paired with its reported inhibition at 1000 µM value.
- measured.target: hMAO-B (Homo sapiens)
- Construct: purchased Sigma-Aldrich (Steinheim, Germany)
- Sequence (P27338 whole entry): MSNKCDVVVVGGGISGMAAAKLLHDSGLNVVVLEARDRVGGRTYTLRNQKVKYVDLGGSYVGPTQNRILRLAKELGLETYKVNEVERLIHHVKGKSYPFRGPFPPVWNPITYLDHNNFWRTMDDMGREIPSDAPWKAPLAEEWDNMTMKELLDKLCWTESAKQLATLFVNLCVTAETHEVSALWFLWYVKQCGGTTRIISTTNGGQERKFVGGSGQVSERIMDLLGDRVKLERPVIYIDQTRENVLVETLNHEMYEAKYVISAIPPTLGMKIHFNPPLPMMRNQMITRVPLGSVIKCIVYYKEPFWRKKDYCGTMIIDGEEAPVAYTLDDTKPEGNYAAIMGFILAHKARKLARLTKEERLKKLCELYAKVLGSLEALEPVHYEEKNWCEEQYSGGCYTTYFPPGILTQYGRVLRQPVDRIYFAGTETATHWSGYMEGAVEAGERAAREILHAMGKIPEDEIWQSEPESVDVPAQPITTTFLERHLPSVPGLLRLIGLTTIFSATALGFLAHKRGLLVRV
- method.notes: MAO-B inhibition assay (in vitro fluorometric Amplex Red method)
- Type: biochemical
- test.conditions: 10^−3 M
Just the number please, in %, no unit attached.

[
  {
    "compound": "C(=NNc1ccccc1)c1ccc(-n2cncn2)cc1 [Compound 2j]",
    "inhibition at 1000 µM / %": 27.5
  },
  {
    "compound": "COc1ccc(Sc2ccc(C=NNc3ccccc3)cc2)cc1 [Compound 2f]",
    "inhibition at 1000 µM / %": 33.3
  },
  {
    "compound": "COc1ccc(N2CCN(c3ccc(C=NNc4ccccc4)cc3)CC2)cc1 [Compound 2d]",
    "inhibition at 1000 µM / %": 39.2
  },
  {
    "compound": "Fc1ccc(Oc2ccc(C=NNc3ccccc3)cc2)cc1 [Compound 2g]",
    "inhibition at 1000 µM / %": 21.7
  },
  {
    "compound": "CN1CCN(c2ccc(C=NNc3ccccc3)cc2)CC1 [Compound 2b]",
    "inhibition at 1000 µM / %": 63.7
  },
  {
    "compound": "Fc1ccc(Sc2ccc(C=NNc3ccccc3)cc2)cc1 [Compound 2h]",
    "inhibition at 1000 µM / %": 30.2
  },
  {
    "compound": "CC1CCCCN1c1ccc(/C=N/Nc2ccccc2)cc1 (centres unmarked) [Compound 2a]",
    "inhibition at 1000 µM / %": 35
  },
  {
    "compound": "COc1ccc(Oc2ccc(C=NNc3ccccc3)cc2)cc1 [Compound 2e]",
    "inhibition at 1000 µM / %": 26.5
  }
]

Request: Provide the documented inhibition at 1000 µM with hMAO-B (Homo sapiens) as the system for C(=NNc1ccccc1)c1ccc(N2CCN(c3ccccc3)CC2)cc1 [Compound 2c]
Result: 38.5

Request: Request - read-out inhibition at 1000 µM | tested on hMAO-B (Homo sapiens) | compound Clc1ccc(Sc2ccc(C=NNc3ccccc3)cc2)cc1 [Compound 2k]
Result: 36.3

Request: Observed inhibition at 1000 µM on hMAO-B (Homo sapiens) for C(=NNc1ccccc1)c1ccc(-n2ccnc2)cc1 [Compound 2i] , please.
Result: 38.2

====

- measured.target: hMAO-B (Homo sapiens)
- Construct: purchased Sigma-Aldrich (Steinheim, Germany)
- method.notes: MAO-B inhibition assay (in vitro fluorometric Amplex Red method)
- Format: biochemical
- test.conditions: 10^−4 M
If the reported inhibition at 100 µM equals or exceeds 20%, assign condition met. If not, assign condition not met.

Illustrative cases are given below, each with its answer.
[
  {
    "compound": "Clc1ccc(Sc2ccc(C=NNc3ccccc3)cc2)cc1",
    "measured.target": "hMAO-B (Homo sapiens)",
    "label.value": "condition not met"
  },
  {
    "compound": "COc1ccc(Sc2ccc(C=NNc3ccccc3)cc2)cc1",
    "measured.target": "hMAO-B (Homo sapiens)",
    "label.value": "condition met"
  },
  {
    "compound": "COc1ccc(N2CCN(c3ccc(C=NNc4ccccc4)cc3)CC2)cc1",
    "measured.target": "hMAO-B (Homo sapiens)",
    "label.value": "condition met"
  },
  {
    "compound": "C(=NNc1ccccc1)c1ccc(-n2ccnc2)cc1",
    "measured.target": "hMAO-B (Homo sapiens)",
    "label.value": "condition met"
  },
  {
    "compound": "COc1ccc(Oc2ccc(C=NNc3ccccc3)cc2)cc1",
    "measured.target": "hMAO-B (Homo sapiens)",
    "label.value": "condition not met"
  }
]

Request: Can CC1CCCCN1c1ccc(/C=N/Nc2ccccc2)cc1 (centres unmarked) be said to have inhibition at 100 µM at or above 20%?
Result: condition met

Request: Is it the case that `Fc1ccc(Oc2ccc(C=NNc3ccccc3)cc2)cc1` has inhibition at 100 µM reaching or exceeding 20%?
Result: condition not met

Request: Answer whether inhibition at 100 µM of `C(=NNc1ccccc1)c1ccc(N2CCN(c3ccccc3)CC2)cc1` is greater than or equal to 20%.
Result: condition met

Request: Given the entry `C(=NNc1ccccc1)c1ccc(-n2cncn2)cc1` , answer whether its inhibition at 100 µM meets or surpasses 20%.
Result: condition met

Request: Quick check: does `CN1CCN(c2ccc(C=NNc3ccccc3)cc2)CC1` have inhibition at 100 µM greater than or equal to 20%?
Result: condition met

Request: Answer whether inhibition at 100 µM of `Fc1ccc(Sc2ccc(C=NNc3ccccc3)cc2)cc1` is greater than or equal to 20%.
Result: condition met

====

measured.endpoint: melting point

Known melting point results, listed for orientation:
[
  {
    "compound": "Clc1ccc(Sc2ccc(C=NNc3ccccc3)cc2)cc1",
    "melting point": "164.4 to 165.7 °C"
  },
  {
    "compound": "C(=NNc1ccccc1)c1ccc(-n2cncn2)cc1",
    "melting point": "127.4 to 132.2 °C"
  }
]

Request: Could you share which melting point value was measured for `Fc1ccc(Sc2ccc(C=NNc3ccccc3)cc2)cc1` ?
Result: 132.3 to 133.9 °C

Request: // melting point lookup, key: `COc1ccc(Oc2ccc(C=NNc3ccccc3)cc2)cc1`
Result: 170.9 to 174.9 °C

Request: Bench note: what melting point did `COc1ccc(Sc2ccc(C=NNc3ccccc3)cc2)cc1` show?
Result: 178.1 to 184.3 °C

====

List of melting point values.

Illustrative cases are given below, each with its answer.
[
  {
    "compound": "C(=NNc1ccccc1)c1ccc(-n2ccnc2)cc1",
    "melting point": "201.9 to 208.9 °C"
  },
  {
    "compound": "C(=NNc1ccccc1)c1ccc(N2CCN(c3ccccc3)CC2)cc1",
    "melting point": "149.4 to 160.9 °C"
  },
  {
    "compound": "COc1ccc(N2CCN(c3ccc(C=NNc4ccccc4)cc3)CC2)cc1",
    "melting point": "141.2 to 150.4 °C"
  }
]

Request: Item `Fc1ccc(Oc2ccc(C=NNc3ccccc3)cc2)cc1` has what recorded melting point?
Result: 121.3 to 124.9 °C
